- measuredTarget: human recombinant ADAMTS1 expressed in the murine myeloma cell line (R&D Systems) (Homo sapiens, UniProt Q9UHI8)
- Construct: commercial recombinant protein from R&D Systems, murine myeloma cell line
- Sequence (Q9UHI8 253-967): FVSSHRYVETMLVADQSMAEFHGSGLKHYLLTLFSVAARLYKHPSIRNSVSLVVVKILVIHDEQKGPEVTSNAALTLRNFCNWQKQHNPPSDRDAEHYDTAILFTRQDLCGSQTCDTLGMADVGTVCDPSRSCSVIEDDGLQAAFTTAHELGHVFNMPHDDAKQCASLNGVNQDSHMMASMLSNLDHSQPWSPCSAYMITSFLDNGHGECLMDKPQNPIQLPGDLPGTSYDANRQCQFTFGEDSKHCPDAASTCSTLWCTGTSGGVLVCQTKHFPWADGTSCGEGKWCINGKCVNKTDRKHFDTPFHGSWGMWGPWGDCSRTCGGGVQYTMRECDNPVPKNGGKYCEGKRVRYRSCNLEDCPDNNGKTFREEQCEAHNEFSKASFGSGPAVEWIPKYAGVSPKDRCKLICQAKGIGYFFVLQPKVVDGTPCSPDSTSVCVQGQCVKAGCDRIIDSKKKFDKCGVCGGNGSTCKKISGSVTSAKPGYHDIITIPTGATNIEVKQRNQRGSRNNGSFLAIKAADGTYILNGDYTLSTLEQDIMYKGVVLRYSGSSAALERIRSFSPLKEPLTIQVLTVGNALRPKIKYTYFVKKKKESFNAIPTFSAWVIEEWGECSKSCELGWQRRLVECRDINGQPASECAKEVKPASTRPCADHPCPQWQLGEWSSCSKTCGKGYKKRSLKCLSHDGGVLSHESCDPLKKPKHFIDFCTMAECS
- experimentSummary: FRET peptide cleavage assay (Abz/Dnp), dose-response
- Assay type: biochemical
measuredMetric: IC50 (µM)

1: CC1=C[C@H](c2cc(/C=C/c3cc(O)cc(O)c3)c(O)cc2O)[C@@H](C(=O)c2ccc(O)cc2O)[C@H](c2ccc(O)cc2O)C1 [J14713, kuwanon P]
2: CC1=C[C@H](c2cc3cc(-c4cc(O)cc(O)c4)oc3cc2O)[C@@H](C(=O)c2ccc(O)cc2O)[C@H](c2ccc(O)cc2O)C1 [J14715, albafuran C]
Identify the item whose IC50 is the smaller number: 1 or 2 Write down the label of the entry you select.
1
(1: 5.5 µM, 2: 10.7 µM)

Taken from paper PMC6264766.
